Source listed as patent US20230349919A1.

# tested target: T1, Der p 2 (house dust mite, UniProt P49278 18-146)
# T1 construct: Also used oligonucleotide-barcoded for cell staining
# T1 sequence (looked up): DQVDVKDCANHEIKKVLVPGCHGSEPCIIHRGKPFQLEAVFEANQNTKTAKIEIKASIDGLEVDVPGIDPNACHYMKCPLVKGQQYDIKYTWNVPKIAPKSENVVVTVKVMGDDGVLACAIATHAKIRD
# test description: barcoded-antigen count on source cell
Reported values of Derp2_ab_raw for individual entries

| binder | measurement unit | Derp2_ab_raw |
| --- | --- | --- |
| IgE mAb 12_2 (antibody, V domains shown) VH: QAYLQQSGAELVRPGASVKMSCKASGYTFISYNMHWVKQTRRQGLEWIGAIYPGNGDTSYNQKFKGKATLTVDKSSSTAYMQLSSLTSEDSAVYFCARWDYYGSSYGAYWGQGTLVTVSA VL: DIQMTQSPASLSVSVGETVTITCRASENIYSNLAWYQQKQGKSPQLLVYAATNLADGVPSRFSGSGSGTQYSLKINSLQSEDFGSYYCQHFWGTPWTFGGGTKLEIK | counts | 11 |
| IgE mAb 13_2 (antibody, V domains shown, IgE (IGHE, IGKC) from HDM-exposed mouse, LymphNode) VH: EVQLQQSGPELVKPGASVKISCKASGYTFTDYYMNWVKQSHGKSLEWIGDINPNNGGTSYNQKFKGKATLTVDKSSSTAYMELRSLTSEDSAVYYCAYGPPRGPPWFAYWGQGTLVTVSA VL: DIVLTQSPASLAVSLGQRATISCRASKSVSTSGYSYMHWYQQKPGQPPKLLIYLASNLESGVPARFSGSGSGTDFTLNIHPVEEEDAATYYCQHSRELPWTFGGGTKLEIK | counts | 46 |
| IgE mAb 17_2 (antibody, V domains shown, IgE (IGHE, IGKC) from HDM-exposed mouse, LymphNode) VH: EVHLQQSGPDLVKPGASVMISCQASGYSFTAYYINWVKQSPEKSLEWIGEINPGSGGVIYNRKFEAKATLIVDKSSNTAFMLLTRLTSEDSAIYYCARKGFYQFDYWGQGTTLTVSS VL: SVVMTQIPKFLVVSAGDRVTITCKASQSVNDGVFWYQQKTGQSPKLVIYHTSNRYTGVSDRFTGSGYGTEFTFTISAVQSEDLAIYFCQQDYTSPLTFGGGTRLEIK | counts | 6 |
| IgE mAb 8_2 (antibody, V domains shown, IgE (IGHE, IGKC) from HDM-exposed mouse, BoneMarrow) VH: QVLLKESGPGLVAPSQSLSITCTVSGFSLTSYGVSWVRQPPGKGLEWLGVIWGDGNTDYHSALISRLSIRKDNSKSQVFLKLNSLQTDDTATYYCAIGSPFAYWGQGTLVTVSA VL: DVLMTQTPLSLPVSLGDQVSISCRSSQNIVHSTGNTYLEWYLQKPGQSPKLLIFKVSNRLSGVPDRFSGSGSGTDFTLNISRVEAADLGIYSCFQGSHVPFTFGSGTKLEIK | counts | 22 |
| IgE mAb 21_2 (antibody, V domains shown, IgE (IGHE, IGKC) from HDM-exposed mouse, LymphNode) VH: QVQLQQSGPELVKPGASVKISCKAPGNAFSYSWMNWVKQRPGKGLEWVGRIYPGDGDTNYNGKFMGKATLTADKSSNTAYIQLSSLTSEDSAVYFCARSGGGTLYWYFDVWGTGTTVTVSS VL: DIVMTQSPSSLALSVGQKVTMNCRSSQSLLNSFNQKNYLAWFQQKPGQSPRLLIYFASTRESGVPDRFIGSGSGTDFTLTISSVQAEDLADYFCQQHYNTPLTFGAGTTLELK | counts | 215 |
| IgE mAb 1_2 (antibody, V domains shown, IgE (IGHE, IGKC) from HDM-exposed mouse, BoneMarrow) VH: QIQLVQSGPELKKPGETVKISCKASGYTFTTYGMSWVKQAPGKGLKWMGWINTYSGVPTYADDFKGRFVFSLETSASTAYLQINNLKNEDTATYFCARAYYYGSSYLIWYFDVWGTGTTVTVSS VL: NIVLTQSPASLAVSLGQRATISCRASESVDSYGNSFMHWYQQKPGQPPKLLIYLASNLESGVPARFSGSGSRTDFTLTIDPVEADDAATYYCQQNNEDPYTFGGGTKLEIK | counts | 60 |
